B1: Cytochrome c2, P00094 (parent)
chain: MKISLTAATVAALVLAAPAFAGDAAKGEKEFNKCKTCHSIIAPDGTEIVKGAKTGPNLYGVVGRTAGTYPEFKYKDSIVALGASGFAWTEEDIATYVKDPGAFLKEKLDDKKAKTGMAFKLAKGGEDVAAYLASVVK

- Variants of: B1
- measurement_parameters: Rhodobacter capsulatus (strain ATCC BAA-309 / NBRC 16581 / SB1003); pH 7.5; 25 °C; GdnHCl; CD; Tris-HCl 20 mM; NaCl 40 mM; structure 1C2R; whole UniProt chain shown
Field: denaturant m value. Provide a value for each of the variants that follow.
Quick note: give the figure in kcal/mol/M, leave out the unit.

Which denaturant m value reading was recorded for the variant "MKISLTAATVAALVLAAPAFAGDAAKGEKEFNKCKTCHSIIAPDGTEIVKGAETGPNLYGVVGRTAGTYPEFKYKDSIVALGASGFAWTEEDIATYVKDPGAFLKEKLDDKKAKTGMAFKLAKGGEDVAAYLASVVK" ?
3

Which denaturant m value reading was recorded for the variant "MKISLTAATVAALVLAAPAFAGDAAKGEKEFNKCETCHSIIAPDGTEIVKGAETGPNLYGVVGRTAGTYPEFKYKDSIVALGASGFAWTEEDIATYVKDPGAFLKEKLDDKKAKTGMAFKLAKGGEDVAAYLASVVK" ?
3

Which denaturant m value reading was recorded for the variant "MKISLTAATVAALVLAAPAFAGDAAKGEKEFNKCETCHSIIAPDGTEIVKGAKTGPNLYGVVGRTAGTYPEFKYKDSIVALGASGFAWTEEDIATYVKDPGAFLKEKLDDKKAKTGMAFKLAKGGEDVAAYLASVVK" ?
2.8

Which denaturant m value reading was recorded for the variant "MKISLTAATVAALVLAAPAFAGDAAKGEKEFNDCKTCHSIIAPDGTEIVKGAKTGPNLYGVVGRTAGTYPEFKYKDSIVALGASGFAWTEEDIATYVKDPGAFLKEKLDDKKAKTGMAFKLAKGGEDVAAYLASVVK" ?
2.8
